conditions: in n-butanol, 323.23 K

{"Compound": "OC[C@@H](O)C(O)[C@@H](O)CO (stereo partly specified)", "solubility (mole fraction)": 0.00588}
